TARGET_OR_TEST_SYSTEM: human Nav1.8 (hNav1.8) ion channel (Homo sapiens, UniProt Q9Y5Y9)
Construct: expressed in transfected cells
Sequence (Q9Y5Y9 whole entry): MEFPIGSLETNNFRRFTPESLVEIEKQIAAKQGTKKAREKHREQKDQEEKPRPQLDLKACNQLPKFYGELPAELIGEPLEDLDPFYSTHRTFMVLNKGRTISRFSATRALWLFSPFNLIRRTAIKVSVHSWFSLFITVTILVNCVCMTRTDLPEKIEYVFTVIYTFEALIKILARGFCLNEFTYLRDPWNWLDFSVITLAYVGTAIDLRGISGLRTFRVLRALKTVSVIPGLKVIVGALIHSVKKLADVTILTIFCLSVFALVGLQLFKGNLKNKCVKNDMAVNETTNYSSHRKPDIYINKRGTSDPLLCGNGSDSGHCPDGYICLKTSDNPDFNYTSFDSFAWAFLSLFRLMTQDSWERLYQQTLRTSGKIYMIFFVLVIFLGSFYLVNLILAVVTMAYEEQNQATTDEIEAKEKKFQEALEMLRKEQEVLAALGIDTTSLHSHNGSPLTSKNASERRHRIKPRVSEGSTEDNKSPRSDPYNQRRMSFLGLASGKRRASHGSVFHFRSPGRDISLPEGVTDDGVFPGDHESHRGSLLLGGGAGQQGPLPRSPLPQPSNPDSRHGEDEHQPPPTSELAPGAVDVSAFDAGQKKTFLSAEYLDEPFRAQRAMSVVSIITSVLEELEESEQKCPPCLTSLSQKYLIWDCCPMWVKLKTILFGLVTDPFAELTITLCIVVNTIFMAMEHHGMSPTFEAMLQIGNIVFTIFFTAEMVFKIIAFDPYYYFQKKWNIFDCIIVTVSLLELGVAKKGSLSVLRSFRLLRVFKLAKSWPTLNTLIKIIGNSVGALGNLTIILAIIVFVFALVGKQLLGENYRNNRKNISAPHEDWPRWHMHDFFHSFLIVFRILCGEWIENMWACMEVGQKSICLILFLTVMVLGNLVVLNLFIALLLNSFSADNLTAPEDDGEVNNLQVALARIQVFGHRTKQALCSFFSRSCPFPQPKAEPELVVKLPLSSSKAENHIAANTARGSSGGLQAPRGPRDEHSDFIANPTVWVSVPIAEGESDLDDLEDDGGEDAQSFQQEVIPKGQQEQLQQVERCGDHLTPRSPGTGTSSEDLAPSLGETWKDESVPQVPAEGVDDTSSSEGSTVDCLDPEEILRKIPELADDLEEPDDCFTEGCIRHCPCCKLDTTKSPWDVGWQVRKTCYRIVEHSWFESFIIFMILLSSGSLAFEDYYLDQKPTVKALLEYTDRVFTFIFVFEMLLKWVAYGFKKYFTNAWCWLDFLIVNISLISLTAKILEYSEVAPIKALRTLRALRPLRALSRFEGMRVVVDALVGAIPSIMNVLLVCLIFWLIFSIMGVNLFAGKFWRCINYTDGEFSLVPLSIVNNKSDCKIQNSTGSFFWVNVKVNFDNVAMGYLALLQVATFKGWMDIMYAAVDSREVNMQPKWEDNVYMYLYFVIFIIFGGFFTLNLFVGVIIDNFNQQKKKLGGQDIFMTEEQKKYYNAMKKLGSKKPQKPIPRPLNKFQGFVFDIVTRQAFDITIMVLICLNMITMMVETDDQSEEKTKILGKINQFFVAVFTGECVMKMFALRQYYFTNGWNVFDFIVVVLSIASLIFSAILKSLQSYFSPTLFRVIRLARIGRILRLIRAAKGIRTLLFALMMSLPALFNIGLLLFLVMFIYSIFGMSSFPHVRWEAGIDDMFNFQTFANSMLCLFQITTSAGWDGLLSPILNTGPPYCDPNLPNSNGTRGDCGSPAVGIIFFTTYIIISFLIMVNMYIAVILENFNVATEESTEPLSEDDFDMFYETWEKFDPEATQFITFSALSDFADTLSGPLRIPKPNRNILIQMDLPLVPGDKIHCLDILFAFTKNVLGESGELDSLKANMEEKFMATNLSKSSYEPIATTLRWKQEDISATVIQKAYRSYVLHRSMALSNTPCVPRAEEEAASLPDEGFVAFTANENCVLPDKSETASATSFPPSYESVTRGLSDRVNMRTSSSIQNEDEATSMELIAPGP
METHOD_DESCRIPTION: Inhibition of human Nav1.8 stably expressed in SH-SY-5Y cells (membrane potential dye fluorescence assay)
Assay type: cell-based
COND: hNav1.8 IC50, SH-SY-5Y hNav1.8 cells; FLIPR membrane potential dye; 10 μM pyrethroid, 250 nM TTX; test concentration range 100 μM-0.05 μM
MEASURE: pIC50
The quantity pIC50 is defined as the negative base-10 logarithm of the molar concentration.

{"COMPOUND": "Cc1ccccc1C(C)N1CC2CC1CN2C(=O)Nc1ccc(Oc2ccc(F)cc2)cc1 (single isomer, unassigned) [Example 74]", "pIC50": 6.96}

Item: Cc1ccccc1C(C)N1CC2CC1CN2C(=O)Cc1ccc(Oc2ccccc2)cc1 (centres unmarked) [Example 36] | pIC50: 6.09
